SYSTEM: T1, Plasmodium falciparum histidine-rich protein II (HRP-II) (Plasmodium falciparum, UniProt P05227 22-332)
T1 construct: Coating antigen of all ELISAs; also called HRP-II protein; MA-HRPII Ag protein
T1 sequence (looked up): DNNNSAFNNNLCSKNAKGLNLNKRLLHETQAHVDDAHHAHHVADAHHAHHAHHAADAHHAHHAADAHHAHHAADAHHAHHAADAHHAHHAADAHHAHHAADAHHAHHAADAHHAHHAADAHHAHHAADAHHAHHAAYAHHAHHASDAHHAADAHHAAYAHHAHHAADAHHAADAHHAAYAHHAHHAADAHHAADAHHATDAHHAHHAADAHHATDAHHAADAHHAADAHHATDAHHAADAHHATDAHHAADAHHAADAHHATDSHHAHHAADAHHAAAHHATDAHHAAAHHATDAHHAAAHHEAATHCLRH
PROTOCOL SUMMARY: indirect ELISA, coated MA-HRPII Ag 1 ug/ml, antibody 40 ng/ml
Would you kindly list OD value at 450 nm (ref 630 nm) for each of these binders?
Answers are plain numbers, in OD.

get_value(item= Anti-HRP-II 3R5 monoclonal antibody (recombinant, expressed in CHO cells; WT) (antibody, mouse IgG2b, kappa, V domains shown, Mouse IgG; also called Anti-HRP-H3R5; CHO transient-transfected cell supernatant) VH: EVQLQQSGPEVVKPGASVKISCKASGSTLTEYYMNWVKQSHGKGLEWIGDLNPINGGTPYQQKFRDKATLTVDKSSNTAYMELRSLTSEDSALYYCTRGAEEYWGQGTTLTVSS VL: DVVLTQTPLSLSVTIGQPASISCKSSQSIIYSNGKIYINWFQQRPGQSPKRLMYQLSKIDPGIPDRFSGSGSETDFTLKISRVEAEDLGVYYCLQGTYSPNTFGGGTKLEIKR , readout=OD value at 450 nm (ref 630 nm)) returns 0.402

Entry Mutation 2 (antibody, mouse IgG2b, kappa, V domains shown, WT as framework) VH: EVQLQQSGPEVVKPGASVKISCKASGSTLTEYYMNWVKQSHGKGLEWIGDLNPINGGTPYQQKFRDKATLTVDKSSNTAYMELRSLTSEDSALYYCTRGAEEYWGQGTTLTVSS VL: DVVLTQTPLSLSVTIGQPASISCKSSQSIIYSNGKIYLNWFQQRPGQSPKRLMYQLSKIDPGIPDRFSGSGSETDFTLKISRVEAEDLGVYYCLQGTYSPNTFGGGTKLEIKR , OD value at 450 nm (ref 630 nm) reported as 0.551

The reported OD value at 450 nm (ref 630 nm) of the binder Mutation 1 (antibody, mouse IgG2b, kappa, V domains shown, also called Variant 1) VH: EVQLQQSGPEVVKPGASVKISCKASGSTLTDYYMNWVKQSHGKGLEWIGDLNPINGGTAYQQKFRDKATLTVDKSSNTAYMELRSLTSEDSALYYCTRGAEDYWGQGTTLTVSS VL: DVVLTQTPLSLSVTIGQPASISCKSSQSIIYSNGKIYLNWFQQRPGQSPKRLMYQLSKLDPGIPDRFSGSGSETDFTLKISRVEAEDLGVYYCLQGTYSPQTFGGGTKLEIKR was 0.695

Continuing:
GET /value?item= Mutation 3 (antibody, mouse IgG2b, kappa, V domains shown, WT as framework) VH: EVQLQQSGPEVVKPGASVKISCKASGSTLTQYYMNWVKQSHGKGLEWIGDLNPINGGTVYQQKFRDKATLTVDKSSNTAYMELRSLTSEDSALYYCTRGAEMYWGQGTTLTVSS VL: DVVLTQTPLSLSVTIGQPASISCKSSQSIIYSNGKIYGNWFQQRPGQSPKRLMYQLSKFDPGIPDRFSGSGSETDFTLKISRVEAEDLGVYYCLQGTYSPMTFGGGTKLEIKR &field=OD value at 450 nm (ref 630 nm) returns 0.032
